EC50 (nM), PC3 co-culture values by entry
experimental-system: CD137 on Jurkat reporter cells (Promega kit CS196005) (UniProt Q07011)
Sequence (Q07011 24-255 limits assumed): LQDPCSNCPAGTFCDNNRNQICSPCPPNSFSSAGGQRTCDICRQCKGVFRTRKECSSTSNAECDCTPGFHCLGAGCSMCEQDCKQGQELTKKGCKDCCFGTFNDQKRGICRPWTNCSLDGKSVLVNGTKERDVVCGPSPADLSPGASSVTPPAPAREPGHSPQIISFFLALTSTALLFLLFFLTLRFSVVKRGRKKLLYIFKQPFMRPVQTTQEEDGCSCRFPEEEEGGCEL
assay-text: cell-based or functional assay
Starred links: 1 amine or outer side, 2 acyl side, 3 side chain; linkers in the order of their positions; H or OH if unused. Positions of bridges follow the written chain, without caps; N, C: chain ends. Non-standard residues stand in square brackets, D forms with d. Chains are numbered I, II in the order given. No end group written: not given here. *: point of attachment. TATA = O=C(CC[*:1])N1CN(C(=O)CC[*:2])CN(C(=O)CC[*:3])C1; d1Nal = N[C@H](Cc1cccc2ccccc12)C(=O)O; Hyp = O=C(O)[C@@H]1C[C@@H](O)CN1; hArg = N=C(N)NCCCC[C@H](N)C(=O)O; tBuAla = CC(C)(C)C[C@H](N)C(=O)O; Cba = N[C@@H](CC1CCC1)C(=O)O; dK(PYA) = not defined here; Nle = CCCC[C@H](N)C(=O)O; Pent4ynoyl = C#CCCC(=O)*; Mpa = O=C(O)CCS
Give the value in nM but do not write nM after it.

Below: 4 binders and their reported EC50 (nM), PC3 co-culture.
BCY13270 (linker I:4-I:11-I:18, II:1-II:8-II:15 via TATA; not fully specified (N-terminus, bridges); also: linker joins chain 1 to two chain 2 copies via PYA triazoles) peptide 1: A[hArg]DC[Hyp]LVNPLCLHP[d1Nal]W[hArg]C peptide 2: Ac-C[tBuAla]PE[dK](Pent4ynoyl)PYCFADPY[Nle]CA; 0.1
BCY13140 (linker I:4-I:11-I:18, II:1-II:8-II:15 via TATA; not fully specified (N-terminus); also: linker joins chain 1 to two chain 2 copies via PYA triazoles) peptide 1: A[hArg]DC[Hyp]LVNPLCLEP[dD]WTC peptide 2: [Mpa][tBuAla]EE[dK](Pent4ynoyl)PYCFADPY[Nle]C; 0.12
BCY12975 (linker I:4-I:11-I:18, II:1-II:8-II:15 via TATA; linker I:6-II:5 via N‑(acid-PEG3)‑N‑bis(PEG3-azide); reading uncertain; also: two CD137 bicycles per complex (EphA2:CD137 1:2)) peptide 1: Ac-A[hArg]DC[Hyp]KVNPLCLHP[dD]W[hArg]C peptide 2: Ac-C[tBuAla]PE[dK(PYA)]PYCFADPY[Nle]CA; 0.16
BCY13139 (linker I:4-I:11-I:18, II:1-II:8-II:15 via TATA; not fully specified (N-terminus); also: linker joins chain 1 to two chain 2 copies via PYA triazoles) peptide 1: A[hArg]DC[Hyp]LVNPLCLHP[dD]W[hArg]C peptide 2: [Mpa][tBuAla]EE[dK](Pent4ynoyl)PYCFADPY[Nle]C; 0.16

Let's switch to this binder now.
So, BCY13050 (linker I:4-I:11-I:18, II:1-II:8-II:15 via TATA; not fully specified (N-terminus, bridges); also: linker joins chain 1 to two chain 2 copies via PYA triazoles) peptide 1: A[hArg]DC[Hyp][Cba]VNPLCLHP[dD]W[hArg]C peptide 2: Ac-C[tBuAla]PE[dK](Pent4ynoyl)PYCFADPY[Nle]CA ? Its EC50 (nM), PC3 co-culture was 0.09
